Where do the numbers come from? From ChEMBL document CHEMBL3739317.

System: Pseudomonas aeruginosa
Test: Antibacterial activity against Pseudomonas aeruginosa at 75 ug/ml after 18 to 24 hrs by disc diffusion method
Assay type: functional
Conditions: read-out: IZ
Some molecules, each annotated with its measured zone of inhibition at 75 µg/mL.
Please respond with the number in mm and leave the unit unwritten.

Past entries and their recorded results:
According to the records, this molecule `N=c1sc(-c2ccc(Cl)cc2)nn1CC(=O)N1c2ccccc2Sc2ccccc21` displays zone of inhibition at 75 µg/mL of 10

According to the records, this molecule `Cc1nn(CC(=O)N2c3ccccc3Sc3ccc(C(F)(F)F)cc32)c(=N)s1` displays zone of inhibition at 75 µg/mL of 15

According to the records, this molecule O=C(O)c1cn(C2CC2)c2cc(N3CCNCC3)c(F)cc2c1=O [CIPROFLOXACIN] displays zone of inhibition at 75 µg/mL of 21

According to the records, this molecule `N=c1sc(-c2cccs2)nn1CC(=O)N1c2ccccc2Sc2ccc(Cl)cc21` displays zone of inhibition at 75 µg/mL of 11

According to the records, this molecule `N=c1sc(-c2cccs2)nn1CC(=O)N1c2ccccc2Sc2ccccc21` displays zone of inhibition at 75 µg/mL of 4

According to the records, this molecule `Cc1nn(CC(=O)N2c3ccccc3Sc3ccc(Cl)cc32)c(=N)s1` displays zone of inhibition at 75 µg/mL of 13

According to the records, this molecule `Cc1nn(CC(=O)N2c3ccccc3Sc3ccccc32)c(=N)s1` displays zone of inhibition at 75 µg/mL of 25

According to the records, this molecule `COc1ccc(-c2nn(CC(=O)N3c4ccccc4Sc4ccc(Cl)cc43)c(=N)s2)cc1OC` displays zone of inhibition at 75 µg/mL of 6

---
According to the records, this molecule `N=c1sc(-c2ccc(F)cc2)nn1CC(=O)N1c2ccccc2Sc2ccc(C(F)(F)F)cc21` displays zone of inhibition at 75 µg/mL of 13

According to the records, this molecule `CCCc1nn(CC(=O)N2c3ccccc3Sc3ccc(Cl)cc32)c(=N)s1` displays zone of inhibition at 75 µg/mL of 12
